# Tested on: Bidens pilosa (BIDPI)
# testProtocol: B2 Post-Emergence Efficacy - Test 2
# Format: in vivo
# testContext: 60 g/Ha, 15 days after application, 0-100 scale
resultType: Herbicidal activity BIDPI
Write the number on its own, no unit after it.

Here are 5 compounds together with their reported answers.
| smilesRecord | measurement |
| --- | --- |
| Cc1nn(C)c(=O)c(-c2c(F)ccc(Cl)c2CCc2ccc(C(F)(F)F)nc2)c1O | 70 |
| Cc1nn(C)c(=O)c(-c2c(F)ccc(Cl)c2CCc2ccc(F)cc2)c1O | 70 |
| Cc1nn(C)c(=O)c(-c2c(F)ccc(Cl)c2CCc2ccc(C#N)cc2)c1O | 80 |
| Cc1nn(C)c(=O)c(-c2c(F)ccc(Cl)c2CCc2ccc(Cl)cc2)c1OC(=O)C(C)C | 70 |
| Cc1nn(C)c(=O)c(-c2c(F)ccc(Cl)c2CCc2ccc(F)cc2)c1OC(=O)C(C)C | 70 |

[in] Indicate its recorded Herbicidal activity BIDPI; the compound in question is Cc1nn(C)c(=O)c(-c2c(F)ccc(Cl)c2CCc2ccccc2C(F)(F)F)c1O
[out] 70

----------
Catalogue of Herbicidal activity on a 0-100 scale, SETFA readings, one per entry.
# Test system: Setaria faberi (SETFA)
# testProtocol: B2 Post-Emergence Efficacy - Test 2
# Assay type: in vivo
# testContext: 30 g/Ha, 15 days after application, 0=no damage, 100=total kill
Write the number on its own, no unit after it.

Here are 3 compounds together with their reported answers.
| smilesRecord | measurement |
| --- | --- |
| Cc1nn(C)c(=O)c(-c2c(F)ccc(Cl)c2CCc2ccc(C#N)cc2)c1O | 70 |
| Cc1nn(C)c(=O)c(-c2c(F)ccc(Cl)c2CCc2ccc(Cl)cc2)c1OC(=O)C(C)C | 20 |
| Cc1nn(C)c(=O)c(-c2c(F)ccc(Cl)c2CCc2ccc(C(F)(F)F)nc2)c1O | 80 |

[in] Give Setaria faberi (SETFA) Herbicidal activity on a 0-100 scale, SETFA for the following compound: Cc1nn(C)c(=O)c(-c2c(F)ccc(Cl)c2CCc2ccc(F)cc2)c1OC(=O)C(C)C
[out] 10

[in] Give Setaria faberi (SETFA) Herbicidal activity on a 0-100 scale, SETFA for the following compound: Cc1nn(C)c(=O)c(-c2c(F)ccc(Cl)c2CCc2ccccc2C(F)(F)F)c1O
[out] 70

[in] Give Setaria faberi (SETFA) Herbicidal activity on a 0-100 scale, SETFA for the following compound: Cc1nn(C)c(=O)c(-c2c(F)ccc(Cl)c2CCc2ccc(F)cc2)c1O
[out] 40

----------
# Tested on: Hordeum vulgare (HORVW)
# testProtocol: B2 Post-Emergence Efficacy - Test 2
# Format: in vivo
# testContext: 15 g/Ha, 15 days after application, 0-100 scale
Catalogue of Herbicidal activity HORVW readings, one per entry.

Here are 3 compounds together with their reported answers.
| compound | system | Herbicidal activity HORVW |
| --- | --- | --- |
| Cc1nn(C)c(=O)c(-c2c(F)ccc(Cl)c2CCc2ccc(F)cc2)c1OC(=O)C(C)C [Compound 1.125] | Hordeum vulgare (HORVW) | 0 |
| Cc1nn(C)c(=O)c(-c2c(F)ccc(Cl)c2CCc2ccc(C#N)cc2)c1O [Compound 1.024] | Hordeum vulgare (HORVW) | 0 |
| Cc1nn(C)c(=O)c(-c2c(F)ccc(Cl)c2CCc2ccccc2C(F)(F)F)c1O [Compound 1.066] | Hordeum vulgare (HORVW) | 0 |

[in] Indicate its recorded Herbicidal activity HORVW; the compound in question is Cc1nn(C)c(=O)c(-c2c(F)ccc(Cl)c2CCc2ccc(F)cc2)c1O [Compound 1.048]
[out] 10

[in] Indicate its recorded Herbicidal activity HORVW; the compound in question is Cc1nn(C)c(=O)c(-c2c(F)ccc(Cl)c2CCc2ccc(C(F)(F)F)nc2)c1O [Compound 1.042]
[out] 10

[in] Indicate its recorded Herbicidal activity HORVW; the compound in question is Cc1nn(C)c(=O)c(-c2c(F)ccc(Cl)c2CCc2ccc(Cl)cc2)c1OC(=O)C(C)C [Compound 1.089]
[out] 10
